Below, each entry is listed with its recorded pEC50.
system: Zika virus (Zika); assay: Cytopathic effect (CPE) assay, Zika virus in Huh7; format: cell-based; conditions: Huh-7, Huh7 cells, CPE
pEC50: −log10 of the molar value.
measured.parameter: pEC50

molecule	quantitative.result
[2H]c1cc([C@]2(C#N)O[C@H](CO)[C@@H](O)[C@H]2O)n2ncnc(N)c12	4.92
N#C[C@@]1(c2ccc3c(N)ncnn23)O[C@H](CO)[C@@H](O)[C@H]1O [GS-441524, reference compound]	4.82

---

Below, each entry is listed with its recorded pEC50.
test system: respiratory syncytial virus (RSV); test: Cytopathic effect (CPE) assay, RSV in HEp-2; assay type: cell-based; conditions: human respiratory syncytial virus, HEp-2 cells
pEC50: −log10 of the molar value.

molecule	pEC50
[2H]c1cc([C@]2(C#N)O[C@H](COC(=O)C(C)C)[C@@H](O)[C@H]2O)n2ncnc(N)c12	6.24
[2H]c1cc([C@]2(C#N)O[C@H](C([2H])([2H])O)[C@@H](OC(=O)C(C)C)[C@H]2O)n2ncnc(N)c12	6.34
[2H]c1cc([C@]2(C#N)O[C@H](CO)[C@@H](OC(=O)C(C)C)[C@H]2O)n2ncnc(N)c12	6.33
[2H]C([2H])(OC(=O)C(C)C)[C@H]1O[C@@](C#N)(c2ccc3c(N)ncnn23)[C@H](O)[C@@H]1O	6.31
[2H]c1cc([C@]2(C#N)O[C@H](COC(=O)[C@@H](N)C(C)C)[C@@H](O)[C@H]2O)n2ncnc(N)c12	6.11
N#C[C@@]1(c2ccc3c(N)ncnn23)O[C@H](CO)[C@@H](O)[C@H]1O [GS-441524, reference compound]	6.14
[2H]c1cc([C@]2(C#N)O[C@H](CO)[C@@H](OC(=O)[C@@H](N)C(C)C)[C@H]2O)n2ncnc(N)c12	6.12
[2H]c1cc([C@]2(C#N)O[C@H](COC(=O)C(C)C)[C@@H](OC(=O)C(C)C)[C@H]2OC(=O)C(C)C)n2ncnc(N)c12	6.20
[2H]c1cc([C@]2(C#N)O[C@H](CO)[C@@H](O)[C@H]2O)n2ncnc(N)c12	6.25
[2H]C([2H])(O)[C@H]1O[C@@](C#N)(c2ccc3c(N)ncnn23)[C@H](O)[C@@H]1O	6.20
[2H]c1cc([C@]2(C#N)O[C@H](C([2H])([2H])O)[C@@H](O)[C@H]2O)n2ncnc(N)c12 (stereo in doubt)	6.18
